Target: HLA-A*02:11
Experiment: IEDB peptide-MHC binding, purified MHC/direct/fluorescence; filed as Kd, often an IC50 or EC50 that approximates it; bounds were set here for any values at or beyond the usual limits of such assays
Details: source organism: Choclo virus
pKd: −log10 of the molar value.
parameter: pKd

What value of pKd has been reported for the following sequence? HTVGLGQGY
≤ 4.70

* * *

Target: HLA-B*40:02
Assay: IEDB peptide-MHC binding, purified MHC/competitive/radioactivity; filed as Kd, often an IC50 or EC50 that approximates it; bounds were set here for any values at or beyond the usual limits of such assays
Settings: source organism: Variola virus
parameter: Kd
In your response, put the unit directly after the numeric value.

# get_value(readout= Kd, system= HLA-B*40:02) for TEYDGHINL
0.998 nM

* * *

Target: HLA-A*69:01
Assay: IEDB peptide-MHC binding, purified MHC/direct/fluorescence; filed as Kd, often an IC50 or EC50 that approximates it; bounds were set here for any values at or beyond the usual limits of such assays
Conditions: source organism: Clostridium botulinum
parameter: Kd (µM)
Provide the reading as a plain figure in µM.

What value of Kd has been reported for the following sequence? FLWSSIIFK
7

* * *

Target: HLA-A*68:02
Assay: IEDB peptide-MHC binding, purified MHC/direct/fluorescence; filed as Kd, often an IC50 or EC50 that approximates it; bounds were set here for any values at or beyond the usual limits of such assays
Details: source organism: Marburg virus - Musoke, Kenya, 1980
parameter: Kd

What value of Kd has been reported for the following sequence? KLDFIRNTK
≥ 20 µM

* * *

Target: HLA-C*05:01
Assay: IEDB peptide-MHC binding, purified MHC/direct/fluorescence; filed as Kd, often an IC50 or EC50 that approximates it; bounds were set here for any values at or beyond the usual limits of such assays
Conditions: source organism: Listeria monocytogenes EGD-e
parameter: Kd

What value of Kd has been reported for the following sequence? KAAETYHVF
≥ 20 µM

* * *

Target: HLA-A*69:01
Assay: IEDB peptide-MHC binding, purified MHC/direct/fluorescence; filed as Kd, often an IC50 or EC50 that approximates it; bounds were set here for any values at or beyond the usual limits of such assays
Settings: source organism: Listeria monocytogenes
parameter: Kd (nM)
Provide the reading as a plain figure in nM.

# get_value(readout= Kd, system= HLA-A*69:01) for ALVSEVTEV
1920

* * *

Molecular target: HLA-B*58:01
Assay: IEDB peptide-MHC binding, purified MHC/direct/fluorescence; filed as Kd, often an IC50 or EC50 that approximates it; bounds were set here for any values at or beyond the usual limits of such assays
Settings: source organism: Escherichia coli O157:H7 str. EC869
parameter: Kd

# get_value(readout= Kd, system= HLA-B*58:01) for ESMMGSTAM
≥ 20 µM

* * *

Molecular target: HLA-B*15:01
Assay: IEDB peptide-MHC binding, purified MHC/competitive/fluorescence; filed as Kd, often an IC50 or EC50 that approximates it; bounds were set here for any values at or beyond the usual limits of such assays
Conditions: source organism: Cryptosporidium parvum Iowa II
parameter: Kd

# get_value(readout= Kd, system= HLA-B*15:01) for FTWQHNYYL
≥ 20 µM

* * *

Target: HLA-C*14:02
Assay: IEDB peptide-MHC binding, purified MHC/direct/fluorescence; filed as Kd, often an IC50 or EC50 that approximates it; bounds were set here for any values at or beyond the usual limits of such assays
Conditions: source organism: Yersinia pestis Nepal516
parameter: Kd (nM)
Provide the reading as a plain figure in nM.

What value of Kd has been reported for the following sequence? RAMKALSSI
413

* * *

Target: HLA-B*08:01
Assay: IEDB peptide-MHC binding, purified MHC/direct/fluorescence; filed as Kd, often an IC50 or EC50 that approximates it; bounds were set here for any values at or beyond the usual limits of such assays
Settings: source organism: Vibrio parahaemolyticus
parameter: Kd

What value of Kd has been reported for the following sequence? YREAGIPVL
≥ 20 µM

* * *

Target: HLA-B*39:01
Experiment: IEDB peptide-MHC binding, purified MHC/competitive/fluorescence; filed as Kd, often an IC50 or EC50 that approximates it; bounds were set here for any values at or beyond the usual limits of such assays
Details: source organism: Vibrio cholerae MO10
parameter: Kd (nM)
Provide the reading as a plain figure in nM.

What value of Kd has been reported for the following sequence? EVNAHIHTM
1330

* * *

Assignment: determine reported Kd for the given sequences.
Molecular target: HLA-A*01:01
Experiment: IEDB peptide-MHC binding, purified MHC/competitive/radioactivity; filed as Kd, often an IC50 or EC50 that approximates it; bounds were set here for any values at or beyond the usual limits of such assays
Conditions: source organism: SARS coronavirus Tor2
Provide the reading as a plain figure in nM.

What value of Kd has been reported for the following sequence? LTQDLFLPFY
8.38

Please give the result for ELSPRWYFYY too.
91.4

Please give the result for MMSAPPAEY too.
182

Please give the result for LSNFGAPSY too.
81.2

Please give the result for YTGNYQCGHY too.
3.38

Please give the result for GTGPEASLPY too.
349

Please give the result for EYADVFHLYL too.
85.5

Please give the result for LTKGTLEPEY too.
3200

Please give the result for VSVKMFDAY too.
102

Please give the result for HSVGFDYVY too.
14900

Please give the result for ATEETFKLSY too.
54.4

Please give the result for FSSLPSYAAY too.
2.04

Please give the result for EIEPKLDGYY too.
55.1

* * *

Target: HLA-A*69:01
Assay: IEDB peptide-MHC binding, purified MHC/direct/fluorescence; filed as Kd, often an IC50 or EC50 that approximates it; bounds were set here for any values at or beyond the usual limits of such assays
Conditions: source organism: Influenza A virus (A/turkey/Minnesota/1200/1980(H7N3))
pKd: −log10 of the molar value.
parameter: pKd

What value of pKd has been reported for the following sequence? VTTEVAFGL
≤ 4.70

* * *

Target: HLA-A*68:01
Test: IEDB peptide-MHC binding, purified MHC/competitive/radioactivity; filed as Kd, often an IC50 or EC50 that approximates it; bounds were set here for any values at or beyond the usual limits of such assays
Details: source organism: Dengue virus 2 Jamaica/1409/1983
Assignment: determine reported Kd for the given sequences.
In your response, put the unit directly after the numeric value.

# get_value(readout= Kd, system= HLA-A*68:01) for MYFHRRDLR
346 nM

Please give the result for YTIGTTHFQR too.
17.3 nM

Please give the result for VTHSSAAQR too.
42 nM

Please give the result for TVCYVLTGR too.
15.2 nM

* * *

Target: HLA-A*26:02
Assay: IEDB peptide-MHC binding, purified MHC/competitive/fluorescence; filed as Kd, often an IC50 or EC50 that approximates it; bounds were set here for any values at or beyond the usual limits of such assays
Conditions: source organism: Francisella tularensis subsp. tularensis FSC198
parameter: Kd (nM)
Provide the reading as a plain figure in nM.

What value of Kd has been reported for the following sequence? EFKQILTDF
457

* * *

Target: HLA-A*02:01
Test: IEDB peptide-MHC binding, purified MHC/competitive/fluorescence; filed as Kd, often an IC50 or EC50 that approximates it; bounds were set here for any values at or beyond the usual limits of such assays
Conditions: source organism: Yersinia pestis Nepal516
parameter: pKd
Bear in mind: pKd is minus log10 of a mol/L concentration; give just that figure.

What value of pKd has been reported for the following sequence? MTSELAALI
8.14

* * *

Target: HLA-C*15:02
Assay: IEDB peptide-MHC binding, purified MHC/direct/fluorescence; filed as Kd, often an IC50 or EC50 that approximates it; bounds were set here for any values at or beyond the usual limits of such assays
Settings: source organism: Burkholderia pseudomallei 406e
parameter: Kd (nM)
Provide the reading as a plain figure in nM.

What value of Kd has been reported for the following sequence? MSWGWRLPF
1720

* * *

Target: HLA-B*37:01
Experiment: IEDB peptide-MHC binding, purified MHC/competitive/fluorescence; bounds were set here for any values at or beyond the usual limits of such assays
Conditions: source organism: Homo sapiens
pIC50: −log10 of the molar value.
parameter: pIC50

What value of pIC50 has been reported for the following sequence? YFYYNAFHWAI
≤ 4.70

* * *

Molecular target: HLA-B*18:01
Assay: IEDB peptide-MHC binding, purified MHC/competitive/radioactivity; filed as Kd, often an IC50 or EC50 that approximates it; bounds were set here for any values at or beyond the usual limits of such assays
Settings: source organism: Lymphocytic choriomeningitis virus (strain Armstrong)
parameter: pKd
Bear in mind: pKd is minus log10 of a mol/L concentration; give just that figure.

What value of pKd has been reported for the following sequence? AEILPDTTY
5.85

* * *

Target: HLA-B*58:01
Assay: IEDB peptide-MHC binding, purified MHC/competitive/fluorescence; filed as Kd, often an IC50 or EC50 that approximates it; bounds were set here for any values at or beyond the usual limits of such assays
Conditions: source organism: Corynebacterium glutamicum ATCC 13032
parameter: Kd

# get_value(readout= Kd, system= HLA-B*58:01) for HLPELIWRS
≥ 20 µM
